Where these numbers come from: paper PMC5515376

# Tested on: P. falciparum (NF54) gametocytes
# experiment-description: In vitro transmission-blocking imaging assay
# Type: cell-based, Plasmodium falciparum
# experimental-context: read-out: EC50, late (L, stages IV–V) gametocytes
measure: pEC50
# pEC50 is unitless: minus log10 of the molar concentration; print number only

# lookup: P. falciparum (NF54) gametocytes pEC50, key = COc1ccc(NC(=O)N2CCCCN3[C@H](CO)[C@H](c4ccc(C#Cc5ccccc5)cc4)[C@@H]3C2)cc1 [BRD3444]
5.84

---

# Tested on: P. berghei (ANKA) liver stage
# experiment-description: In vitro P. berghei liver-stage assay
# Type: cell-based, Plasmodium berghei
# experimental-context: P. berghei (ANKA), Liver stage
Entries annotated with measured EC50
Reply numerically in nM, unit not repeated.

[
  {
    "compound": "COc1ccc(NC(=O)N2CCCCN3[C@H](CO)[C@H](c4ccc(C#Cc5ccccc5)cc4)[C@@H]3C2)cc1 [BRD3444]",
    "endpoint-unit": "nM",
    "EC50": 140
  }
]

Below: the item to evaluate.
Give EC50 for the following compound: COc1ccc(NC(=O)N2CCCCN3[C@H](CN(C)C)[C@H](c4ccc(C#Cc5ccccc5)cc4)[C@@H]3C2)cc1 [BRD7929]
162

---

# target-entity: hERG channel (Homo sapiens, UniProt Q12809)
# Sequence (Q12809 whole entry): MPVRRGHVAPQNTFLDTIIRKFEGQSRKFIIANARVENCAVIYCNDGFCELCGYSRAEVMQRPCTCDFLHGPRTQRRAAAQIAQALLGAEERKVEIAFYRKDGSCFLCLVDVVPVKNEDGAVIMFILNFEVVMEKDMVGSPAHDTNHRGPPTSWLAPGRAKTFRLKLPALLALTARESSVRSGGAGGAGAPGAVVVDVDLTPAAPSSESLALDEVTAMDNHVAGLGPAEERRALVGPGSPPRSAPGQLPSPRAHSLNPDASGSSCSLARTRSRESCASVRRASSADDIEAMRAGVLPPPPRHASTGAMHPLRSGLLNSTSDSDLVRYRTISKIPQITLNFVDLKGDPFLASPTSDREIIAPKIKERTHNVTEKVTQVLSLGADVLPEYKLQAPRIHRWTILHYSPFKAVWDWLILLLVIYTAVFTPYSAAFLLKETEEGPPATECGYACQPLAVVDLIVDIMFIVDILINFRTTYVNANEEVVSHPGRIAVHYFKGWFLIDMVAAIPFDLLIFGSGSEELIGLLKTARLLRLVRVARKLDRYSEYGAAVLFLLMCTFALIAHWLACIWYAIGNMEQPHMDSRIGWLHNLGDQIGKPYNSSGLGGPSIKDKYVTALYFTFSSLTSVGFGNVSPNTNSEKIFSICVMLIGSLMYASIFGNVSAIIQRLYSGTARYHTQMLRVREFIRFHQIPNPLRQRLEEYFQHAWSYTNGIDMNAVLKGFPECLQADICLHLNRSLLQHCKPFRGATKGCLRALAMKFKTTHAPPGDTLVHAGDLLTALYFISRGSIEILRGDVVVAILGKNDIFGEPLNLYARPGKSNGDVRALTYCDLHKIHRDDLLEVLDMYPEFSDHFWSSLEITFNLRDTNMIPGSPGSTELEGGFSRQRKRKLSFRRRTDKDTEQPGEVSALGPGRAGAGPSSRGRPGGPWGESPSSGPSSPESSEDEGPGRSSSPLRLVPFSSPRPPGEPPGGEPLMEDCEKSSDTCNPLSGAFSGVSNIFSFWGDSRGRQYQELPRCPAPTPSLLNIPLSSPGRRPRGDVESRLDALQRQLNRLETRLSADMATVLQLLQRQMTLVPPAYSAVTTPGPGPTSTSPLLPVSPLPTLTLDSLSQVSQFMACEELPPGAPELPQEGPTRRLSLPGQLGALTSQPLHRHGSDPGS
# experiment-description: hERG channel inhibition assay
# Type: cell-based
# experimental-context: read-out: hERG IC50; IKr
Entries annotated with measured pIC50
When answering, recall that pIC50 equals minus log10 of the concentration in mol/L, and write that number alone.

[
  {
    "smiles-input": "COc1ccc(NC(=O)N2CCCCN3[C@H](CO)[C@H](c4ccc(C#Cc5ccccc5)cc4)[C@@H]3C2)cc1",
    "pIC50": 5.28
  },
  {
    "smiles-input": "COc1ccc(NC(=O)N2CCCCN3[C@H](CN)[C@H](c4ccc(C#Cc5ccccc5)cc4)[C@@H]3C2)cc1",
    "pIC50": 5.29
  }
]

Below: the item to evaluate.
Identify the reported pIC50 for the following entry. COc1ccc(NC(=O)N2CCCCN3[C@H](CN(C)C)[C@H](c4ccc(C#Cc5ccccc5)cc4)[C@@H]3C2)cc1
5.68

---

# Tested on: P. berghei (ANKA) liver stage
# experiment-description: In vitro P. berghei liver-stage assay
# Type: cell-based, Plasmodium berghei
# experimental-context: read-out: EC50, liver stages; in vitro
measure: pEC50
Note on units: pEC50 is unitless, being -log10 of a concentration expressed in mol/L.

Give reported pEC50 value for CCCNC(=O)N1[C@H](C#N)[C@H](c2ccc(C#Cc3cccc(F)c3)cc2)[C@H]1CO
7.82

---

# Test system: P. falciparum Dd2
# experiment-description: In vitro P. falciparum blood-stage growth inhibition assay
# Format: cell-based, Plasmodium falciparum
# experimental-context: read-out: PfDd2 EC50; asexual blood-stage parasites (Dd2); SAR table
measure: EC50 (nM)
Numeric only. Scale: nM

[
  {
    "smiles-input": "COc1ccc(NC(=O)N2CCCCN3[C@H](CN(C)C)[C@H](c4ccc(C#Cc5ccccc5)cc4)[C@@H]3C2)cc1",
    "target-entity": "P. falciparum Dd2",
    "EC50 (nM)": 9
  }
]

Quick one: give measured EC50 for COc1ccc(NC(=O)N2CCCCN3[C@H](CO)[C@H](c4ccc(C#Cc5ccccc5C#N)cc4)[C@@H]3C2)cc1
261

Specify measured EC50 for COc1ccc(NC(=O)N2CCCCN3[C@H](CN4CCC4)[C@H](c4ccc(C#Cc5ccccc5)cc4)[C@@H]3C2)cc1 .
116

Read off the recorded EC50 for COc1ccc(NC(=O)N2CCCCN3[C@H](CN(C)C(C)C)[C@H](c4ccc(C#Cc5ccccc5)cc4)[C@@H]3C2)cc1
24

Indicate the recorded EC50 value for this compound: COc1ccc(NC(=O)N2CCCCN3[C@H](CO)[C@H](c4ccc(C#Cc5ccccc5)cc4)[C@]3(CO)C2)cc1
1870

---

# Test system: P. falciparum (NF54) liver stage
# experiment-description: In vitro P. falciparum liver-stage assay
# Type: cell-based, Plasmodium falciparum
measure: EC50 (nM)
The figure you give is taken to be in nM; do not add the unit.

[
  {
    "smiles-input": "COc1ccc(NC(=O)N2CCCCN3[C@H](CO)[C@H](c4ccc(C#Cc5ccccc5)cc4)[C@@H]3C2)cc1",
    "target-entity": "P. falciparum (NF54) liver stage",
    "EC50 [nM]": 1310
  }
]

Now consider the entry below.
Answer with the recorded EC50 for the compound listed here: COc1ccc(NC(=O)N2CCCCN3[C@H](CN(C)C)[C@H](c4ccc(C#Cc5ccccc5)cc4)[C@@H]3C2)cc1
340
